All figures here come from ChEMBL document CHEMBL4138146.

Tested on: OVCAR-5
Assay: Growth inhibition of human OVCAR5 cells assessed as cell growth at 10 uM incubated for 48 hrs by sulforhodamine B assay relative to control
Assay type: functional
Settings: OVCAR-5, 48 h, read-out: Activity
parameter.measured: growth at 10 µM (%)
Express the result in % but write the number alone.

Study these solved cases before continuing.
[
  {
    "compound": "CCCCOc1nc2ccc(OC)cc2cc1C1CNC(=O)c2ccccc2N1 (configuration not stated)",
    "parameter.measured": "growth at 10 µM",
    "measured.number": 107
  },
  {
    "compound": "O=C1NCC(c2cc3ccc(Cl)cc3[nH]c2=O)Nc2ccccc21 (configuration not stated)",
    "parameter.measured": "growth at 10 µM",
    "measured.number": 97.7
  },
  {
    "compound": "CCCCOc1nc2c(C)cccc2cc1C1CNC(=O)c2ccccc2N1 (configuration not stated)",
    "parameter.measured": "growth at 10 µM",
    "measured.number": 112
  },
  {
    "compound": "O=C1CC(c2cc3ccc4ccccc4c3[nH]c2=O)Nc2ccccc21 (configuration not stated)",
    "parameter.measured": "growth at 10 µM",
    "measured.number": 114
  },
  {
    "compound": "O=C1CC(c2cc3ccccc3[nH]c2=O)Nc2ccccc21 (configuration not stated)",
    "parameter.measured": "growth at 10 µM",
    "measured.number": 106
  }
]

Reported growth at 10 µM for CCCCOc1nc2ccccc2cc1C1CNC(=O)c2ccccc2N1 (configuration not stated) was 55.3

response.value for CCCCn1c(=O)c(C2CNC(=O)c3ccccc3N2)cc2ccc(Cl)cc21 (configuration not stated) (field: growth at 10 µM) = 109

GET /value?item= O=C1NCC(c2cc3ccc4ccccc4c3[nH]c2=O)Nc2ccccc21 (configuration not stated) &field=growth at 10 µM returns 101

Looking up CCCCn1c(=O)c(C2CNC(=O)c3ccccc3N2)cc2ccccc21 (configuration not stated) , I found its growth at 10 µM recorded as 96.3

Measured growth at 10 µM, Cc1ccc2[nH]c(=O)c(C3CNC(=O)c4ccccc4N3)cc2c1 (configuration not stated) : 92.9

Lookup result for Cc1cccc2cc(C3CNC(=O)c4ccccc4N3)c(=O)[nH]c12 (configuration not stated) ; measured growth at 10 µM: 102

Note to self: growth at 10 µM recorded for O=C1NCC(c2cc3ccccc3[nH]c2=O)Nc2ccccc21 (configuration not stated) was 91.2

---

Test system: HCC 2998
Assay: Growth inhibition of human HCC2998 cells assessed as cell growth at 10 uM incubated for 48 hrs by sulforhodamine B assay relative to control
Assay type: functional
Conditions: HCC 2998, 48 h, read-out: Activity
parameter.measured: growth at 10 µM

[
  {
    "compound": "CCCCOc1nc2ccccc2cc1C1CNC(=O)c2ccccc2N1 (stereo unspecified)",
    "parameter.measured": "growth at 10 µM",
    "result": "56.5%"
  },
  {
    "compound": "Cc1cccc2cc(C3CNC(=O)c4ccccc4N3)c(=O)[nH]c12 (stereo unspecified)",
    "parameter.measured": "growth at 10 µM",
    "result": "103%"
  },
  {
    "compound": "CCCCOc1nc2c(C)cccc2cc1C1CNC(=O)c2ccccc2N1 (stereo unspecified)",
    "parameter.measured": "growth at 10 µM",
    "result": "101%"
  },
  {
    "compound": "CCCCn1c(=O)c(C2CNC(=O)c3ccccc3N2)cc2ccc(Cl)cc21 (stereo unspecified)",
    "parameter.measured": "growth at 10 µM",
    "result": "111%"
  },
  {
    "compound": "O=C1NCC(c2cc3ccc4ccccc4c3[nH]c2=O)Nc2ccccc21 (stereo unspecified)",
    "parameter.measured": "growth at 10 µM",
    "result": "97.8%"
  }
]

Entry CCCCOc1nc2ccc(OC)cc2cc1C1CNC(=O)c2ccccc2N1 (stereo unspecified) ; growth at 10 µM = 123%

---

Reported values of growth at 10 µM for individual entries
Tested on: OVCAR-8
Assay: Growth inhibition of human OVCAR8 cells assessed as cell growth at 10 uM incubated for 48 hrs by sulforhodamine B assay relative to control
Assay type: functional
Conditions: OVCAR-8, 48 h, read-out: Activity
Please state the figure in %; there is no need to write the unit.

Consider the worked cases shown below.
[
  {
    "compound": "CCCCOc1nc2ccc(OC)cc2cc1C1CNC(=O)c2ccccc2N1 (stereo unspecified)",
    "tgt": "OVCAR-8",
    "unit.info": "%",
    "growth at 10 µM": 102
  },
  {
    "compound": "CCCCn1c(=O)c(C2CNC(=O)c3ccccc3N2)cc2ccc(Cl)cc21 (stereo unspecified)",
    "tgt": "OVCAR-8",
    "unit.info": "%",
    "growth at 10 µM": 99.3
  },
  {
    "compound": "Cc1cccc2cc(C3CNC(=O)c4ccccc4N3)c(=O)[nH]c12 (stereo unspecified)",
    "tgt": "OVCAR-8",
    "unit.info": "%",
    "growth at 10 µM": 103
  }
]

For reference, reported growth at 10 µM for O=C1NCC(c2cc3ccc4ccccc4c3[nH]c2=O)Nc2ccccc21 (stereo unspecified) stands at 78

// growth at 10 µM lookup, compound = O=C1CC(c2cc3ccccc3[nH]c2=O)Nc2ccccc21 (stereo unspecified) , result: 108

Value of measured growth at 10 µM for the entry O=C1NCC(c2cc3ccc(Cl)cc3[nH]c2=O)Nc2ccccc21 (stereo unspecified) : 97.8

---

Tested on: Plasmodium falciparum
Test: Antimalarial activity against chloroquine-sensitive Plasmodium falciparum 3D7 incubated for 48 hrs by malstat reagent based LDH release assay
Type: functional, organism-based
Details: 3D7, 48 h
// assign class 1 if EC50 falls strictly below 60 µg/mL, else class 0 (ties count as class 0)

Before answering, review these 3 worked examples.
[
  {
    "molecule": "O=C1NCC(c2cc3cc(Br)ccc3[nH]c2=O)Nc2ccccc21 (stereo not drawn)",
    "assigned.category": "class 1"
  },
  {
    "molecule": "O=C1NCC(c2cc3ccccc3[nH]c2=O)Nc2ccccc21 (stereo not drawn)",
    "assigned.category": "class 0"
  },
  {
    "molecule": "O=C1NCC(c2cc3cc(Cl)ccc3[nH]c2=O)Nc2ccccc21 (stereo not drawn)",
    "assigned.category": "class 1"
  }
]

input: Decide: EC50 of CCCCOc1nc2ccc(Br)cc2cc1C1CNC(=O)c2ccccc2N1 (stereo not drawn) strictly below 60 µg/mL?
output: class 1

---

Listing: growth at 10 µM of selected molecules
Tested on: T47D
Assay: Growth inhibition of human T47D cells assessed as cell growth at 10 uM incubated for 48 hrs by sulforhodamine B assay relative to control
Format: functional
Conditions: read-out: Activity
// return numeric value only (unit: %, not printed)

Recorded results for 2 molecules are shown here.
[
  {
    "molecule": "Cc1ccc2[nH]c(=O)c(C3CNC(=O)c4ccccc4N3)cc2c1 (configuration not stated)",
    "growth at 10 µM / %": 116
  },
  {
    "molecule": "CCCCn1c(=O)c(C2CNC(=O)c3ccccc3N2)cc2ccccc21 (configuration not stated)",
    "growth at 10 µM / %": 93.7
  }
]

Entry O=C1CC(c2cc3ccc4ccccc4c3[nH]c2=O)Nc2ccccc21 (configuration not stated) ; growth at 10 µM = 93.1

Entry O=C1CC(c2cc3ccccc3[nH]c2=O)Nc2ccccc21 (configuration not stated) ; growth at 10 µM = 94.3

---

# growth at 10 µM listing for each entry below
System: SNB-19
Test: Growth inhibition of human SNB19 cells assessed as cell growth at 10 uM incubated for 48 hrs by sulforhodamine B assay relative to control
Type: functional
Conditions: SNB-19, 48 h, read-out: Activity
Supply the numeric figure in %, leaving out any unit text.

[
  {
    "compound": "O=C1NCC(c2cc3ccc(Cl)cc3[nH]c2=O)Nc2ccccc21 (stereo unspecified)",
    "tgt": "SNB-19",
    "unit.info": "%",
    "growth at 10 µM": 108
  },
  {
    "compound": "O=C1NCC(c2cc3ccc4ccccc4c3[nH]c2=O)Nc2ccccc21 (stereo unspecified)",
    "tgt": "SNB-19",
    "unit.info": "%",
    "growth at 10 µM": 89.2
  },
  {
    "compound": "CCCCOc1nc2ccccc2cc1C1CNC(=O)c2ccccc2N1 (stereo unspecified)",
    "tgt": "SNB-19",
    "unit.info": "%",
    "growth at 10 µM": 33.4
  },
  {
    "compound": "CCCCOc1nc2c(C)cccc2cc1C1CNC(=O)c2ccccc2N1 (stereo unspecified)",
    "tgt": "SNB-19",
    "unit.info": "%",
    "growth at 10 µM": 47
  },
  {
    "compound": "CCCCn1c(=O)c(C2CNC(=O)c3ccccc3N2)cc2ccc(Cl)cc21 (stereo unspecified)",
    "tgt": "SNB-19",
    "unit.info": "%",
    "growth at 10 µM": 94.7
  }
]

Now, please, on to the next compound.
Field growth at 10 µM (entry O=C1CC(c2cc3ccc4ccccc4c3[nH]c2=O)Nc2ccccc21 (stereo unspecified) ) reads 92.5
